Values were extracted from PubChem BioAssay (NCI).

Test system: OVCAR-3 ovarian
Assay: NCI-60 one-dose screen, 48 h (100 = growth as untreated, 0 = no growth, -100 = all killed)
Conditions: 10 µM unless noted
The panel holds about 83,000 compounds, 20% with a hit somewhere; the sample as a whole holds those more often.
Quantity name: growth (%)
Give the value, in units of %, as a plain number.

Request: Name the reported growth value associated with the molecule O=C(/C=C/c1sc(Cl)nc1Cl)c1ccccc1
Response: 46

Request: Now give it for C[C@H](C(=O)Nc1ccc(S(N)(=O)=O)cc1)S(=O)(=O)c1ccccc1 too.
Response: 117

Request: Entry Nc1ccc(Sc2ccc([N+](=O)[O-])c3nonc23)cc1 please
Response: 78

Request: And the next one, Cc1ccc(C2CC(c3ccc(Nc4ccnc5cc(Cl)ccc45)cc3)=NN2C=O)cc1 (stereo not drawn) ?
Response: 30.6

Request: Field entry: O=C(O)c1cn(C2CC2)c2cc(N3CCN(C(=O)Nc4nc(-c5ccc(Cl)cc5)cs4)CC3)c(F)cc2c1=O
Response: 5.86

More entries:
Request: Param item = BrCCCc1n(Cc2ccc3ccccc3c2)c2ccccc2[n+]1Cc1ccc2ccccc2c1 ; retrieve measured growth.
Response: -71.5

Request: Cool, now COc1cc(C(=O)N2N=C(c3ccc(S(C)(=O)=O)cc3)CC2c2ccco2)cc(OC)c1OC (stereo not drawn)
Response: 5

Request: Then O=c1c2cc(F)ccc2sc2c(N3CCNCC3)nc3ccccc3c12 ?
Response: -79.6
